From: ChEMBL document CHEMBL1949649

- test details: Clearance in Beagle dog at 1 mg/kg, iv and 5 mg/kg, po
- Assay type: ADME, organism-based, Canis lupus familiaris
- condition: in vivo
Hi there, I'd appreciate the recorded clearance for every entry that follows.
Entry rule: numbers only, all in mL/min/kg.

Exercise: Sample `CC(=O)N1CCC(Cn2c(C(C)(C)C)nc3cc(S(=O)(=O)CC4CC4)ccc32)CC1` — what was its clearance?
Key: 13.3

Exercise: Sample `CC(=O)N1CCC(Cn2c(C(C)(C)C)nc3cc(S(=O)(=O)c4nccs4)ccc32)CC1` — what was its clearance?
Key: 11.7

###

- test details: Volume of distribution in Beagle dog at 1 mg/kg, iv and 5 mg/kg, po
- Assay type: ADME, organism-based, Canis lupus familiaris
- condition: in vivo
Hi there, I'd appreciate the recorded Vd for every entry that follows.
Please report the result as a number followed by the unit.

Exercise: Sample `CC(=O)N1CCC(Cn2c(C(C)(C)C)nc3cc(S(=O)(=O)c4nccs4)ccc32)CC1` — what was its Vd?
Key: 3.7 L/kg

Exercise: Sample `CC(=O)N1CCC(Cn2c(C(C)(C)C)nc3cc(S(=O)(=O)CC4CC4)ccc32)CC1` — what was its Vd?
Key: 1.9 L/kg

###

- test details: Absolute oral bioavailability in Beagle dog at 5 mg/kg
- Assay type: ADME, organism-based, Canis lupus familiaris
- condition: in vivo
measurement label: bioavailability
Please report the result as a number followed by the unit.

Exercise: Sample `CC(=O)N1CCC(Cn2c(C(C)(C)C)nc3cc(S(=O)(=O)CC4CC4)ccc32)CC1` — what was its bioavailability?
Key: 86%

Exercise: Sample `CC(=O)N1CCC(Cn2c(C(C)(C)C)nc3cc(S(=O)(=O)c4nccs4)ccc32)CC1` — what was its bioavailability?
Key: 100%

###

- test details: Solubility of the compound in water
- Format: physicochemical
measurement label: solubility (µg/mL)
Entry rule: numbers only, all in µg/mL.

Exercise: Sample `CC(=O)N1CCC(Cn2c(C(C)(C)C)nc3cc(S(=O)(=O)CC4CC4)ccc32)CC1` — what was its solubility?
Key: 1500

Exercise: Sample `CC(=O)N1CCC(Cn2c(C(C)(C)C)nc3cc(S(=O)(=O)c4nccs4)ccc32)CC1` — what was its solubility?
Key: 20

###

Hi there, I'd appreciate the recorded pEC50 for every entry that follows.
- system under test: Cannabinoid receptor 2 (Homo sapiens)
- Sequence (P34972 whole entry): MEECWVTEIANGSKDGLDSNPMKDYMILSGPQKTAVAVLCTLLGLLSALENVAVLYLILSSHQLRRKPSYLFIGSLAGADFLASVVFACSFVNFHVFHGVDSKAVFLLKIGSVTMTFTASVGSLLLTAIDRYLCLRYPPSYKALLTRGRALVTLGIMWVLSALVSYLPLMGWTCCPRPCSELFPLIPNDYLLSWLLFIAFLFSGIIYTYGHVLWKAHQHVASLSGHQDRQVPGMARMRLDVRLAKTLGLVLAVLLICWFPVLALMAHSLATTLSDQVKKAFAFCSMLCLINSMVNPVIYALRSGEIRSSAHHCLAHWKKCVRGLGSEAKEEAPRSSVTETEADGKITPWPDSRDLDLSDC
- test details: Agonist activity at human CB2 receptor
When answering, recall that pEC50 equals minus log10 of the concentration in mol/L, and write that number alone.

Exercise: Sample `CC(=O)N1CCC(Cn2c(C(C)(C)C)nc3cc(S(=O)(=O)c4ccc(F)cc4)ccc32)CC1` — what was its pEC50?
Key: 8.54

Exercise: Sample `CC(=O)N1CCC(Cn2c(C(C)(C)C)nc3cc(S(=O)(=O)CCCC(F)(F)F)ccc32)CC1` — what was its pEC50?
Key: 7.89

Exercise: Sample `COCCOc1cc(S(=O)(=O)c2ccc3c(c2)nc(C(C)(C)C)n3CC2CCOCC2)ccn1` — what was its pEC50?
Key: 8.89

Exercise: Sample `CC(C)(C)c1nc2cc(S(=O)(=O)c3ccnc(OCCCO)c3)ccc2n1CC1CCOCC1` — what was its pEC50?
Key: 8.92

Exercise: Sample `CC(=O)NCCCCCc1cc(S(=O)(=O)c2ccc3c(c2)nc(C(C)(C)C)n3CC2CCOCC2)ccn1` — what was its pEC50?
Key: 8.25

Exercise: Sample `CC(=O)N1CCC(Cn2c(C(C)(C)C)nc3cc(S(=O)(=O)c4ccncc4)ccc32)CC1` — what was its pEC50?
Key: 8.34

Exercise: Sample `CC(C)(C)c1nc2cc(S(=O)(=O)CCCC(F)(F)F)ccc2n1CC1CCNCC1` — what was its pEC50?
Key: 6.62

Exercise: Sample `COCCCOc1cc(S(=O)(=O)c2ccc3c(c2)nc(C(C)(C)C)n3CC2CCOCC2)ccn1` — what was its pEC50?
Key: 9.30

Exercise: Sample `CC(C)(C)c1nc2cc(S(=O)(=O)c3nccs3)ccc2n1CC1CCN(C=O)CC1` — what was its pEC50?
Key: 8.08

Exercise: Sample `CCS(=O)(=O)c1ccc2c(c1)nc(C(C)(C)C)n2CC1CCS(=O)(=O)CC1` — what was its pEC50?
Key: 7.55

Exercise: Sample `CC(C)(C)c1nc2cc(S(=O)(=O)CC3CC3)ccc2n1CC1CCS(=O)(=O)CC1` — what was its pEC50?
Key: 8.08

Exercise: Sample `COCCCc1cc(S(=O)(=O)c2ccc3c(c2)nc(C(C)(C)C)n3CC2CCOCC2)ccn1` — what was its pEC50?
Key: 8.96

Exercise: Sample `CC(=O)N1CCC(Cn2c(C(C)(C)C)nc3cc(S(=O)(=O)CC4CC4)ccc32)CC1` — what was its pEC50?
Key: 8.09

Exercise: Sample `CC(=O)N1CCC(Cn2c(C(C)(C)C)nc3cc(S(=O)(=O)c4nccs4)ccc32)CC1` — what was its pEC50?
Key: 8.11

Exercise: Sample `CCS(=O)(=O)c1ccc2c(c1)nc(C(C)(C)C)n2CC1CCN(C=O)CC1` — what was its pEC50?
Key: 7.64

Exercise: Sample `CCS(=O)(=O)c1ccc2c(c1)nc(C(C)(C)C)n2CC1CCN(C(C)=O)CC1` — what was its pEC50?
Key: 8.08

Exercise: Sample `CC(C)(C)c1nc2cc(S(=O)(=O)CCCC(F)(F)F)ccc2n1CC1CCOCC1` — what was its pEC50?
Key: 8.96

Exercise: Sample `COCCCNc1cc(S(=O)(=O)c2ccc3c(c2)nc(C(C)(C)C)n3CC2CCOCC2)ccn1` — what was its pEC50?
Key: 9.10

###

Hi there, I'd appreciate the recorded solubility for every entry that follows.
- test details: Solubility of the compound in 10% cyclodextrin

Exercise: Sample `CC(=O)N1CCC(Cn2c(C(C)(C)C)nc3cc(S(=O)(=O)CC4CC4)ccc32)CC1` — what was its solubility?
Key: 25 mg/mL

Exercise: Sample `CC(=O)N1CCC(Cn2c(C(C)(C)C)nc3cc(S(=O)(=O)c4nccs4)ccc32)CC1` — what was its solubility?
Key: 8 mg/mL

###

Hi there, I'd appreciate the recorded bioavailability for every entry that follows.
- test details: Absolute oral bioavailability in Sprague-Dawley rat at 10 mg/kg
- Assay type: ADME, organism-based
- condition: in vivo

Exercise: Sample `CC(=O)N1CCC(Cn2c(C(C)(C)C)nc3cc(S(=O)(=O)c4nccs4)ccc32)CC1` — what was its bioavailability?
Key: 35%

Exercise: Sample `CC(=O)N1CCC(Cn2c(C(C)(C)C)nc3cc(S(=O)(=O)CC4CC4)ccc32)CC1` — what was its bioavailability?
Key: 56%

###

- test details: Drug metabolism in mouse liver microsomes at 5 uM after 60 mins
- Type: ADME, Microsome
- condition: read-out: Drug metabolism
measurement label: metabolised at 1 h, 5 µM (%)
Entry rule: numbers only, all in %.

Exercise: Sample `CC(=O)N1CCC(Cn2c(C(C)(C)C)nc3cc(S(=O)(=O)c4nccs4)ccc32)CC1` — what was its metabolised at 1 h, 5 µM?
Key: 6

Exercise: Sample `CC(=O)N1CCC(Cn2c(C(C)(C)C)nc3cc(S(=O)(=O)CC4CC4)ccc32)CC1` — what was its metabolised at 1 h, 5 µM?
Key: 12

###

- test details: Drug metabolism in human liver microsomes at 5 uM after 60 mins
- Assay type: ADME, Microsome
- condition: read-out: Drug metabolism
measurement label: metabolised at 1 h, 5 µM (%)
Entry rule: numbers only, all in %.

Exercise: Sample `CC(=O)N1CCC(Cn2c(C(C)(C)C)nc3cc(S(=O)(=O)CC4CC4)ccc32)CC1` — what was its metabolised at 1 h, 5 µM?
Key: 5

Exercise: Sample `CC(=O)N1CCC(Cn2c(C(C)(C)C)nc3cc(S(=O)(=O)c4nccs4)ccc32)CC1` — what was its metabolised at 1 h, 5 µM?
Key: 12

###

Hi there, I'd appreciate the recorded clearance for every entry that follows.
- test details: Clearance in Sprague-Dawley rat at 2.5 mg/kg, iv and 10 mg/kg, po
- Type: ADME, organism-based
- condition: in vivo
Please report the result as a number followed by the unit.

Exercise: Sample `CC(=O)N1CCC(Cn2c(C(C)(C)C)nc3cc(S(=O)(=O)c4nccs4)ccc32)CC1` — what was its clearance?
Key: 53.3 mL/min/kg

Exercise: Sample `CC(=O)N1CCC(Cn2c(C(C)(C)C)nc3cc(S(=O)(=O)CC4CC4)ccc32)CC1` — what was its clearance?
Key: 41.7 mL/min/kg

###

- test details: Drug metabolism in human liver microsomes after 15 mins
- Assay type: ADME, Microsome
- condition: read-out: Drug metabolism
measurement label: metabolised at 0.25 h (%)
Entry rule: numbers only, all in %.

Exercise: Sample `CCC(=O)N1CCC(Cn2c(C(C)(C)C)nc3cc(S(=O)(=O)CCCC(F)(F)F)ccc32)CC1` — what was its metabolised at 0.25 h?
Key: 4

Exercise: Sample `CC(C)(C)c1nc2cc(S(=O)(=O)CCCC(F)(F)F)ccc2n1CC1CCOCC1` — what was its metabolised at 0.25 h?
Key: 36

Exercise: Sample `CC(=O)N1CCC(Cn2c(C(C)(C)C)nc3cc(S(=O)(=O)c4ccc(F)cc4)ccc32)CC1` — what was its metabolised at 0.25 h?
Key: 8

Exercise: Sample `CC(C)(C)c1nc2cc(S(=O)(=O)CCCC(F)(F)F)ccc2n1CC1CCN(C=O)CC1` — what was its metabolised at 0.25 h?
Key: 17

Exercise: Sample `CC(=O)N1CCC(Cn2c(C(C)(C)C)nc3cc(S(=O)(=O)c4nccs4)ccc32)CC1` — what was its metabolised at 0.25 h?
Key: 9

Exercise: Sample `CC(=O)NCCCCCc1cc(S(=O)(=O)c2ccc3c(c2)nc(C(C)(C)C)n3CC2CCOCC2)ccn1` — what was its metabolised at 0.25 h?
Key: 86

Exercise: Sample `CC(C)(C)c1nc2cc(S(=O)(=O)c3ccnc(OCCCO)c3)ccc2n1CC1CCOCC1` — what was its metabolised at 0.25 h?
Key: 40

Exercise: Sample `COCCCc1cc(S(=O)(=O)c2ccc3c(c2)nc(C(C)(C)C)n3CC2CCOCC2)ccn1` — what was its metabolised at 0.25 h?
Key: 93

Exercise: Sample `COCCOc1cc(S(=O)(=O)c2ccc3c(c2)nc(C(C)(C)C)n3CC2CCOCC2)ccn1` — what was its metabolised at 0.25 h?
Key: 53

Exercise: Sample `CCS(=O)(=O)c1ccc2c(c1)nc(C(C)(C)C)n2CC1CCN(C(C)=O)CC1` — what was its metabolised at 0.25 h?
Key: 13

Exercise: Sample `CC(=O)NCCc1cc(S(=O)(=O)c2ccc3c(c2)nc(C(C)(C)C)n3CC2CCOCC2)ccn1` — what was its metabolised at 0.25 h?
Key: 44

Exercise: Sample `COCCCOc1cc(S(=O)(=O)c2ccc3c(c2)nc(C(C)(C)C)n3CC2CCOCC2)ccn1` — what was its metabolised at 0.25 h?
Key: 100

Exercise: Sample `CCOc1cc(S(=O)(=O)c2ccc3c(c2)nc(C(C)(C)C)n3CC2CCOCC2)ccn1` — what was its metabolised at 0.25 h?
Key: 48

Exercise: Sample `CC(=O)N1CCC(Cn2c(C(C)(C)C)nc3cc(S(=O)(=O)c4ccncc4)ccc32)CC1` — what was its metabolised at 0.25 h?
Key: 29

Exercise: Sample `COCCCNc1cc(S(=O)(=O)c2ccc3c(c2)nc(C(C)(C)C)n3CC2CCOCC2)ccn1` — what was its metabolised at 0.25 h?
Key: 99

Exercise: Sample `CC(=O)N1CCC(Cn2c(C(C)(C)C)nc3cc(S(=O)(=O)CC4CC4)ccc32)CC1` — what was its metabolised at 0.25 h?
Key: 18

Exercise: Sample `CC(C)(C)c1nc2cc(S(=O)(=O)CC3CC3)ccc2n1CC1CCS(=O)(=O)CC1` — what was its metabolised at 0.25 h?
Key: 2

Exercise: Sample `CC(C)(C)c1nc2cc(S(=O)(=O)CCCC(F)(F)F)ccc2n1CC1CCN(C(=O)C(F)(F)F)CC1` — what was its metabolised at 0.25 h?
Key: 20

Exercise: Sample `CCS(=O)(=O)c1ccc2c(c1)nc(C(C)(C)C)n2CC1CCN(C=O)CC1` — what was its metabolised at 0.25 h?
Key: 7

Exercise: Sample `CC(=O)N1CCC(Cn2c(C(C)(C)C)nc3cc(S(=O)(=O)CCCC(F)(F)F)ccc32)CC1` — what was its metabolised at 0.25 h?
Key: 17

Exercise: Sample `CC(C)(C)c1nc2cc(S(=O)(=O)CC3CC3)ccc2n1CC1CCN(C=O)CC1` — what was its metabolised at 0.25 h?
Key: 16

Exercise: Sample `COC(=O)N1CCC(Cn2c(C(C)(C)C)nc3cc(S(=O)(=O)CCCC(F)(F)F)ccc32)CC1` — what was its metabolised at 0.25 h?
Key: 54

Exercise: Sample `CC(=O)N1CCC(Cn2c(C(C)(C)C)nc3cc(S(=O)(=O)C4CCCC4)ccc32)CC1` — what was its metabolised at 0.25 h?
Key: 87
